# protocol: qHTS for Inhibitors of the Aldehyde Dehydrogenase Family (ALDH1A2, ALDH1A3, ALDH2, ALDH3A1) (AID 2061307); further: nearly all actives have a fitted effect of over 50% in size
# conditionNotes: ALDH inhibition qHTS; series mostly up to 50.3 µM
Records with an inconclusive call do not appear. Active and inactive are the calls of the source. The call rests on the fitted dose curve; in most records, active means well fitted inhibition curve with a large enough effect; inconclusive means small, poorly fitted or top-dose-only effect; inactive means no such curve, though single readings can be large or run the other way.
Possible outcomes: active, inactive

{"compound": "Cc1cc(C)nc(NC(=S)N2CCN(c3ccc(F)c(Cl)c3)CC2)c1", "classLabel": "active"}
{"compound": "Cn1c(=O)n(C)c2cc(N3CCCC3)c(NC(=O)Nc3ccccc3)cc21", "classLabel": "inactive"}
{"compound": "COc1ccc(C2Nc3cccc(OC)c3C(=O)N2Cc2ccccc2)cc1COc1ccc(NC(C)=O)cc1 (stereo not given)", "classLabel": "active"}
{"compound": "O=C(NC1CCCC1)c1csc(N2CCN(c3cccc(Cl)c3)CC2)n1", "classLabel": "active"}
{"compound": "CCN1C(=O)c2ccccc2S(=O)c2ccc(C(=O)NCc3ccccc3Cl)cc21 (stereo not given)", "classLabel": "active"}

###

# tgt: Aldehyde dehydrogenase 1A1 (Homo sapiens) (UniProt P00352)
# protocol: qHTS for Inhibitors of the Aldehyde Dehydrogenase Family (ALDH1A1) Confirmatory screens (AID 2061316); further: nearly all actives have a fitted effect of over 65% in size
# conditionNotes: ALDH inhibition qHTS; series mostly up to 47.3 µM
Inconclusive results are not listed. Activity calls are given as the source filed them. Calls come from the whole dose curve; as a rule, active = well fitted inhibition curve with a large enough effect; inconclusive = small, poorly fitted or top-dose-only effect; inactive = no such curve, though single readings can be large or run the other way.
Outcomes: active, inactive

{"molecule": "CC(O)c1ccc(-c2ccc3ncnc(N4CCOCC4)c3c2)o1 (stereo not given)", "classLabel": "active"}
{"molecule": "O=C(Nc1cccc(Cc2ccccc2)n1)c1ccc(-c2cccc([N+](=O)[O-])c2)o1", "classLabel": "active"}
{"molecule": "O=C(C(NS(=O)(=O)c1ccc2[nH]c(=O)ccc2c1)c1cccc(C(F)(F)F)c1)N(Cc1ccco1)Cc1cccs1 (stereo not given)", "classLabel": "inactive"}
{"molecule": "c1ccc(CNc2ccc(N3CCOCC3)cc2)cc1", "classLabel": "active"}
{"molecule": "Cc1cc(C)nc(NC(=S)N2CC3CN(c4ncc(C(F)(F)F)cc4Cl)CC3C2)c1 (stereo not given)", "classLabel": "active"}
{"molecule": "C/C=C/c1ccc2oc(-c3ccc(O)c(OC)c3)c(C)c2c1", "classLabel": "active"}
{"molecule": "CC(=O)N1CCN(c2ccc(N)cc2)CC1", "classLabel": "active"}
{"molecule": "CC(=O)N1CCN(c2ccc(NCc3ccc(Br)o3)cc2)CC1", "classLabel": "active"}
{"molecule": "N#Cc1ccc(CNc2nc(-c3ccccc3C(F)(F)F)nc3ccccc23)cc1", "classLabel": "active"}
{"molecule": "CN(CC(=O)Nc1ccc(N2CCOCC2)cc1)Cc1cccc2ccccc12", "classLabel": "active"}

###

# protocol: qHTS for Inhibitors of the Aldehyde Dehydrogenase Family (ALDH1A2, ALDH1A3, ALDH2, ALDH3A1) (AID 2061307); further: nearly all actives have a fitted effect of over 50% in size
# conditionNotes: ALDH inhibition qHTS; series mostly up to 50.3 µM
Records with an inconclusive call do not appear. Active and inactive are the calls of the source. The call rests on the fitted dose curve; in most records, active means well fitted inhibition curve with a large enough effect; inconclusive means small, poorly fitted or top-dose-only effect; inactive means no such curve, though single readings can be large or run the other way.
Outcomes: yes for active, no for inactive

{"compound": "N#Cc1c(-c2cccc(Cl)c2)no[n+]1[O-]", "classLabel": "yes"}
{"compound": "Cc1cccn2c(=O)c(C(=O)NCc3cccc(F)c3)cnc12", "classLabel": "no"}
{"compound": "COC(=O)c1ccc(O)c2ncc(N3CC[C@H](N)C3)cc12", "classLabel": "no"}
{"compound": "CCOc1ccc(NC(=O)Cn2c(=O)n(-c3ccccc3)c(=O)c3ccc(C(=O)NCc4ccc5c(c4)OCO5)cc32)cc1", "classLabel": "no"}
{"compound": "Cc1cccc(NC(=O)N2CC(Oc3ccc(-c4nc(C)no4)cc3)C2)c1", "classLabel": "yes"}
{"compound": "Cc1ccc2c(CC(=O)Nc3c(C(=O)c4ccc(F)cc4)oc4ccccc34)coc2c1C", "classLabel": "no"}
{"compound": "O=C(NC1CCCc2c1cnn2-c1ccc(OCCOCCOCCNCCc2cn(-c3cc4ccc(O)cc4oc3=O)nn2)cc1)c1ccccn1 (centres undefined)", "classLabel": "no"}
{"compound": "N#Cc1nc(-c2ccc(F)cc2)oc1N1CCN(C(=O)c2ccccc2F)CC1", "classLabel": "no"}
{"compound": "COc1ccc(CCNC(=O)c2ccc3nnc(-c4ccc([S+](C)(=O)[O-])cc4)n3c2)cc1", "classLabel": "no"}

###

# protocol: BET inhibitor-based combinations targeting novel dependencies in MECOM-rearranged (r) AML: UCSD-AML1 cell line (AID 2202235); further: nearly all actives have a fitted effect of over 40% in size; further: potency means the concentration at half of the fitted maximal effect
# conditionNotes: UCSD-AML1 AML cells viability, CellTiter-Glo, 48 h; series mostly up to 46 µM
# Experimental: Ecotropic viral insertion site 1 (EVI1) is located on chromosome 3q26.2 as part of the MECOM (MDS and EVI1 complex) locus. […] A collection of 2480 mechanistically annotated dugs (MIPE v5.0) was used to screen four 3q26.2 rearranged AML cell lines and three non-3q26.2 rearranged AML cell lines. […] Cell viability was determined by luminescence based, Cell Titer Glo assay (Promega). […] Luminescence readings were taken using a Viewlux (PerkinElmer) with a 2 s exposure time per plate. […]
Results filed as inconclusive are left out. The source made the active and inactive calls. The call rests on the fitted dose curve; in most records, active means well fitted inhibition curve with a large enough effect; inconclusive means small, poorly fitted or top-dose-only effect; inactive means no such curve, though single readings can be large or run the other way.

{"compound": "N#CCC1(n2cc(-c3ncnc4[nH]ccc34)cn2)CN(C2CCN(C(=O)c3ccnc(C(F)(F)F)c3F)CC2)C1", "Potency": "3720 nM (active)"}
{"compound": "COc1ccc(S(=O)(=O)Nc2cc(-c3csc(C#N)c3)ccc2C)cc1", "Potency": "148 nM (active)"}
{"compound": "C=C1/C(=C/C=C2\\CCCC3(C)[C@@H]([C@H](C)/C=C/C=C/C(O)(CC)CC)CC[C@@H]23)C[C@@H](O)C[C@@H]1O (stereo partly drawn)", "Potency": "inactive"}
{"compound": "CCNCCS(=O)(=O)NC[C@@]1(c2ccccc2)SC(NC(=O)C(C)(C)C)=NN1C(=O)C(C)(C)C", "Potency": "4.7 nM (active)"}
{"compound": "Cc1noc(C)c1-c1ccc(-c2cc(C(N)=O)c(NC(N)=O)s2)c(O[C@H]2CCNC2)c1", "Potency": "inactive"}
{"compound": "Nc1nc(OC(c2ccc(-c3cccc(F)c3)cc2)C(F)(F)F)cc(-c2ccc(C[C@@H](N)C(=O)O)cc2)n1 (stereo partly drawn)", "Potency": "inactive"}
{"compound": "Cc1oc(=O)oc1CN1CCN(c2cc3c(cc2F)c(=O)c(C(=O)O)c2n3C(C)S2)CC1 (stereo not drawn)", "Potency": "inactive"}
{"compound": "CN[C@@H](C)C(=O)N[C@@H]1C(=O)N(Cc2c(C)ccc3ccccc23)c2ccc(C#N)cc2N(C(C)=O)[C@H]1C", "Potency": "inactive"}
{"compound": "O=C(O)/C(S)=C/c1ccc(I)cc1", "Potency": "inactive"}
{"compound": "Cc1cc(C)c2c(c1)[C@@H](N(Cc1cc(C(F)(F)F)cc(C(F)(F)F)c1)c1nnn(C)n1)CCCN2CC1CCC(C(=O)O)CC1 (stereo partly drawn)", "Potency": "inactive"}
{"compound": "Cc1ccc(-c2ncn(-c3ccc(Nc4nccc(-c5cccc(N6CCOCC6)c5)n4)cc3)n2)cn1", "Potency": "2350 nM (active)"}
{"compound": "Cn1ncc(Cl)c1-c1cc(C(=O)NC(CN)Cc2ccc(F)c(F)c2)oc1Cl (stereo not drawn)", "Potency": "13200 nM (active)"}
{"compound": "C#CCN(C)CC1=Cc2ccccc2Oc2ccccc21", "Potency": "inactive"}
{"compound": "CS[C@H]1SC[C@@H]2C(=O)N(C)[C@H](C(C)C)C(=O)OC[C@H](NC(=O)c3cnc4ccccc4n3)C(=O)N[C@H](C)C(=O)N(C)[C@H]1C(=O)N(C)[C@H](C(C)C)C(=O)OC[C@H](NC(=O)c1cnc3ccccc3n1)C(=O)N[C@H](C)C(=O)N2C", "Potency": "5.3 nM (active)"}
{"compound": "C[C@@H]1COC(Nc2ccc3ncnc(Nc4ccc(OCc5nccs5)c(Cl)c4)c3c2)=N1", "Potency": "26300 nM (active)"}
{"compound": "CCN(CC)C(=O)Cc1csc(NS(=O)(=O)c2cccc(Cl)c2C)n1", "Potency": "inactive"}
{"compound": "CC(C)C[C@H](NC(=O)c1cc2ccccc2s1)C(=O)N1CCN(C(=O)[C@H](CO)NS(=O)(=O)c2ccc(Cl)cc2Cl)CC1", "Potency": "inactive"}
{"compound": "CN(Cc1ccc(/C=C/C(=O)NO)cc1)CC12CC3CC(CC(C3)C1)C2", "Potency": "132 nM (active)"}
{"compound": "COC(=O)c1ccc([C@H]2c3[nH]c4ccccc4c3C[C@H](C(=O)OC)N2C(=O)CCl)cc1", "Potency": "166 nM (active)"}
{"compound": "COc1ccc2c(c1OC)C(=O)OC2[C@H]1c2c(cc3c(c2OC)OCO3)CCN1C (stereo partly drawn)", "Potency": "inactive"}
{"compound": "CC(C)(O)C1CCC(Nc2ccc3ncc(-c4cccc(C(F)(F)F)c4)n3n2)CC1 (stereo not drawn)", "Potency": "6610 nM (active)"}
{"compound": "CCC(=O)OCC(=O)C1(OC(=O)CC)C(C)CC2C3CCC4=CC(=O)C=CC4(C)C3(F)C(O)CC21C (stereo not drawn)", "Potency": "inactive"}
{"compound": "CC(C)C(N)C(=O)OCC(CO)OCn1cnc2c(=O)[nH]c(N)nc21 (stereo not drawn)", "Potency": "inactive"}
{"compound": "CN(C)c1ccc(Nc2nc(N)n(C(=O)c3c(F)cccc3F)n2)cc1", "Potency": "2630 nM (active)"}
{"compound": "Cc1cc(C)c(CNC(=O)c2cc(-c3ccc(N4CCN(C)CC4)nc3)cc3c2c(C)cn3C(C)C)c(=O)[nH]1", "Potency": "inactive"}
{"compound": "CO[C@H]1C[C@@H]2CC[C@@H](C)[C@@](O)(O2)C(=O)C(=O)N2CCCC[C@@H]2C(=O)O[C@H]([C@@H](C)C[C@@H]2CC[C@H](O)[C@H](OC)C2)CC(=O)[C@H](C)C=C(C)[C@@H](O)[C@@H](OC)C(=O)[C@H](C)C[C@H](C)C=CC=CC=C1C", "Potency": "1.7 nM (active)"}
{"compound": "CC/C(=C(/c1ccc(O)cc1)c1ccc(OCCNC)cc1)c1ccccc1", "Potency": "9340 nM (active)"}
{"compound": "C[C@H]1O[C@H](O[C@H]2[C@H](O)[C@@H](O)[C@@H](O[C@H]3[C@H](O)[C@@H](O)C(O)O[C@@H]3CO)O[C@@H]2CO)[C@H](O)[C@@H](O)[C@@H]1N[C@H]1C=C(CO)[C@@H](O)[C@H](O)[C@H]1O (stereo partly drawn)", "Potency": "inactive"}
{"compound": "COc1cc(OC)cc(N(CCNC(C)C)c2ccc3ncc(-c4cnn(C)c4)nc3c2)c1", "Potency": "10500 nM (active)"}
{"compound": "Fc1ccc(-c2csc3ncnc(NCc4ccc5c(c4)OCO5)c23)cc1", "Potency": "20900 nM (active)"}
{"compound": "O=C(/C=C\\n1cnc(-c2cc(C(F)(F)F)cc(C(F)(F)F)c2)n1)NNc1ccccn1", "Potency": "468 nM (active)"}
{"compound": "CCc1cnn2c(NCc3ccc[n+]([O-])c3)cc(N3CCCC[C@H]3CCO)nc12", "Potency": "23.5 nM (active)"}
{"compound": "CC(C)n1ncnc1-c1cn2c(n1)-c1ccc(O[C@@H](C)C(N)=O)cc1OCC2", "Potency": "5250 nM (active)"}
